test system: Staphylococcus aureus SAU.42 (ATCC 29213); format: cell-based; conditions: ATCC 29213
Exercise: state measured Sa42 MIC for each of the molecules provided.
One number for each entry, in µg/mL.

Q: # query: Sa42 MIC of entry CCCSc1ccc(-c2csc(C(=O)N[C@@H](Cc3c[nH]c4ccccc34)C(=O)N[C@H](CC(N)=O)C(=O)N[C@@H](CC(=O)O)C(=O)N[C@@H]3C(=O)NCC(=O)N[C@@H](CCCN)C(=O)N[C@@H](CC(=O)O)C(=O)N[C@H](C)C(=O)N[C@@H](CC(=O)O)C(=O)NCC(=O)N[C@H](CO)C(=O)N[C@@H]([C@H](C)CC(=O)O)C(=O)N[C@@H](CC(=O)c4ccccc4N)C(=O)O[C@@H]3C)c2)cc1 [Compound 56]
Ans: 2

Q: # query: Sa42 MIC of entry CC(C)CCCCCCC(=O)N[C@@H](Cc1c[nH]c2ccccc12)C(=O)N[C@H](CC(N)=O)C(=O)N[C@@H](CC(=O)O)C(=O)N[C@@H]1C(=O)NCC(=O)N[C@@H](CCCN)C(=O)N[C@@H](CC(=O)O)C(=O)N[C@H](C)C(=O)N[C@@H](CC(=O)O)C(=O)NCC(=O)N[C@H](CO)C(=O)N[C@@H]([C@H](C)CC(=O)O)C(=O)N[C@@H](CC(=O)c2ccccc2N)C(=O)O[C@@H]1C [Compound 9]
Ans: 0.5

Consider now this further molecule.
Q: # query: Sa42 MIC of entry CC(C)Cc1ccc(C(C)C(=O)N[C@@H](Cc2c[nH]c3ccccc23)C(=O)N[C@H](CC(N)=O)C(=O)N[C@@H](CC(=O)O)C(=O)N[C@@H]2C(=O)NCC(=O)N[C@@H](CCCN)C(=O)N[C@@H](CC(=O)O)C(=O)N[C@H](C)C(=O)N[C@@H](CC(=O)O)C(=O)NCC(=O)N[C@H](CO)C(=O)N[C@@H]([C@H](C)CC(=O)O)C(=O)N[C@@H](CC(=O)c3ccccc3N)C(=O)O[C@@H]2C)cc1 (single isomer, unassigned) [45 isomer II]
Ans: 4

----------
tested on: Enterococcus faecalis EFS.201 (ATCC 49452); format: cell-based; conditions: ATCC 49452
outcomeMeasure: Efs201 MIC

A selection of reference data follows.
Q: # query: Efs201 MIC of entry CCCCCCCCC1CC1C(=O)N[C@@H](Cc1c[nH]c2ccccc12)C(=O)N[C@H](CC(N)=O)C(=O)N[C@@H](CC(=O)O)C(=O)N[C@@H]1C(=O)NCC(=O)N[C@@H](CCCN)C(=O)N[C@@H](CC(=O)O)C(=O)N[C@H](C)C(=O)N[C@@H](CC(=O)O)C(=O)NCC(=O)N[C@H](CO)C(=O)N[C@@H]([C@H](C)CC(=O)O)C(=O)N[C@@H](CC(=O)c2ccccc2N)C(=O)O[C@@H]1C (single isomer, unassigned) [27 isomer I]
Ans: 2 mg/L

Q: # query: Efs201 MIC of entry CCCCCC1CCC([C@H]2CC[C@H](C(=O)N[C@@H](Cc3c[nH]c4ccccc34)C(=O)N[C@H](CC(N)=O)C(=O)N[C@@H](CC(=O)O)C(=O)N[C@@H]3C(=O)NCC(=O)N[C@@H](CCCN)C(=O)N[C@@H](CC(=O)O)C(=O)N[C@H](C)C(=O)N[C@@H](CC(=O)O)C(=O)NCC(=O)N[C@H](CO)C(=O)N[C@@H]([C@H](C)CC(=O)O)C(=O)N[C@@H](CC(=O)c4ccccc4N)C(=O)O[C@@H]3C)CC2)CC1 (stereo partly drawn)
Ans: 0.5 mg/L

Q: # query: Efs201 MIC of entry CC(C)C1CCC(CCCC(=O)N[C@@H](Cc2c[nH]c3ccccc23)C(=O)N[C@H](CC(N)=O)C(=O)N[C@@H](CC(=O)O)C(=O)N[C@@H]2C(=O)NCC(=O)N[C@@H](CCCN)C(=O)N[C@@H](CC(=O)O)C(=O)N[C@H](C)C(=O)N[C@@H](CC(=O)O)C(=O)NCC(=O)N[C@H](CO)C(=O)N[C@@H]([C@H](C)CC(=O)O)C(=O)N[C@@H](CC(=O)c3ccccc3N)C(=O)O[C@@H]2C)CC1 (stereo partly drawn)
Ans: 0.25 mg/L

Q: # query: Efs201 MIC of entry CCCCc1ccc(/C(C)=C/C(=O)N[C@@H](Cc2c[nH]c3ccccc23)C(=O)N[C@H](CC(N)=O)C(=O)N[C@@H](CC(=O)O)C(=O)N[C@@H]2C(=O)NCC(=O)N[C@@H](CCCN)C(=O)N[C@@H](CC(=O)O)C(=O)N[C@H](C)C(=O)N[C@@H](CC(=O)O)C(=O)NCC(=O)N[C@H](CO)C(=O)N[C@@H]([C@H](C)CC(=O)O)C(=O)N[C@@H](CC(=O)c3ccccc3N)C(=O)O[C@@H]2C)cc1
Ans: 1 mg/L

Q: # query: Efs201 MIC of entry CCCCCCCCC1CC1C(=O)N[C@@H](Cc1c[nH]c2ccccc12)C(=O)N[C@H](CC(N)=O)C(=O)N[C@@H](CC(=O)O)C(=O)N[C@@H]1C(=O)NCC(=O)N[C@@H](CCCN)C(=O)N[C@@H](CC(=O)O)C(=O)N[C@H](C)C(=O)N[C@@H](CC(=O)O)C(=O)NCC(=O)N[C@H](CO)C(=O)N[C@@H]([C@H](C)CC(=O)O)C(=O)N[C@@H](CC(=O)c2ccccc2N)C(=O)O[C@@H]1C (single isomer, unassigned) [27 isomer II]
Ans: 0.5 mg/L

Consider now this further compound.
Q: # query: Efs201 MIC of entry CCCCCCCCCCCCCCC(=O)N[C@@H](Cc1c[nH]c2ccccc12)C(=O)N[C@H](CC(N)=O)C(=O)N[C@@H](CC(=O)O)C(=O)N[C@@H]1C(=O)NCC(=O)N[C@@H](CCCN)C(=O)N[C@@H](CC(=O)O)C(=O)N[C@H](C)C(=O)N[C@@H](CC(=O)O)C(=O)NCC(=O)N[C@H](CO)C(=O)N[C@@H]([C@H](C)CC(=O)O)C(=O)N[C@@H](CC(=O)c2ccccc2N)C(=O)O[C@@H]1C
Ans: 0.25 mg/L

----------
test system: Staphylococcus aureus SAU.42 (ATCC 29213); assay type: cell-based; conditions: ATCC 29213
Mark Yes only when Sa42 MIC stays strictly below 1 µg/mL. Values equal to the cut-off are No.

Q: Is it true that Sa42 MIC reported for CCCCCCCCC1CC1C(=O)N[C@@H](Cc1c[nH]c2ccccc12)C(=O)N[C@H](CC(N)=O)C(=O)N[C@@H](CC(=O)O)C(=O)N[C@@H]1C(=O)NCC(=O)N[C@@H](CCCN)C(=O)N[C@@H](CC(=O)O)C(=O)N[C@H](C)C(=O)N[C@@H](CC(=O)O)C(=O)NCC(=O)N[C@H](CO)C(=O)N[C@@H]([C@H](C)CC(=O)O)C(=O)N[C@@H](CC(=O)c2ccccc2N)C(=O)O[C@@H]1C (single isomer, unassigned) [27 isomer I] is less than 1 µg/mL?
Ans: No

----------
test system: Staphylococcus aureus SAU.42 (ATCC 29213); type: cell-based; conditions: ATCC 29213
outcomeMeasure: Sa42 MIC (µg/mL)
Answers are plain numbers, in µg/mL.

Q: # query: Sa42 MIC of entry CCCCCCCCCCCC(=O)N[C@@H](Cc1c[nH]c2ccccc12)C(=O)N[C@H](CC(N)=O)C(=O)N[C@@H](CC(=O)O)C(=O)N[C@@H]1C(=O)NCC(=O)N[C@@H](CCCN)C(=O)N[C@@H](CC(=O)O)C(=O)N[C@H](C)C(=O)N[C@@H](CC(=O)O)C(=O)NCC(=O)N[C@H](CO)C(=O)N[C@@H]([C@H](C)CC(=O)O)C(=O)N[C@@H](CC(=O)c2ccccc2N)C(=O)O[C@@H]1C
Ans: 0.5

Q: # query: Sa42 MIC of entry C[C@H](CC(=O)O)[C@@H]1NC(=O)[C@@H](CO)NC(=O)CNC(=O)[C@H](CC(=O)O)NC(=O)[C@@H](C)NC(=O)[C@H](CC(=O)O)NC(=O)[C@H](CCCN)NC(=O)CNC(=O)[C@@H](NC(=O)[C@H](CC(=O)O)NC(=O)[C@@H](CC(N)=O)NC(=O)[C@H](Cc2c[nH]c3ccccc23)NC(=O)CCCCCCC2CCCCC2)[C@@H](C)OC(=O)[C@H](CC(=O)c2ccccc2N)NC1=O
Ans: 0.5

Q: # query: Sa42 MIC of entry C[C@H](CC(=O)O)[C@@H]1NC(=O)[C@@H](CO)NC(=O)CNC(=O)[C@H](CC(=O)O)NC(=O)[C@@H](C)NC(=O)[C@H](CC(=O)O)NC(=O)[C@H](CCCN)NC(=O)CNC(=O)[C@@H](NC(=O)[C@H](CC(=O)O)NC(=O)[C@@H](CC(N)=O)NC(=O)[C@H](Cc2c[nH]c3ccccc23)NC(=O)c2ccc(-c3ccc(Cl)cc3)cc2)[C@@H](C)OC(=O)[C@H](CC(=O)c2ccccc2N)NC1=O
Ans: 4

Q: # query: Sa42 MIC of entry CCCCCCCCCCCCCC(=O)N[C@@H](Cc1c[nH]c2ccccc12)C(=O)N[C@H](CC(N)=O)C(=O)N[C@@H](CC(=O)O)C(=O)N[C@@H]1C(=O)NCC(=O)N[C@@H](CCCN)C(=O)N[C@@H](CC(=O)O)C(=O)N[C@H](C)C(=O)N[C@@H](CC(=O)O)C(=O)NCC(=O)N[C@H](CO)C(=O)N[C@@H]([C@H](C)CC(=O)O)C(=O)N[C@@H](CC(=O)c2ccccc2N)C(=O)O[C@@H]1C
Ans: 1

Q: # query: Sa42 MIC of entry CCCCCCCCC1CC1C(=O)N[C@@H](Cc1c[nH]c2ccccc12)C(=O)N[C@H](CC(N)=O)C(=O)N[C@@H](CC(=O)O)C(=O)N[C@@H]1C(=O)NCC(=O)N[C@@H](CCCN)C(=O)N[C@@H](CC(=O)O)C(=O)N[C@H](C)C(=O)N[C@@H](CC(=O)O)C(=O)NCC(=O)N[C@H](CO)C(=O)N[C@@H]([C@H](C)CC(=O)O)C(=O)N[C@@H](CC(=O)c2ccccc2N)C(=O)O[C@@H]1C (single isomer, unassigned) [27 isomer II]
Ans: 1

Q: # query: Sa42 MIC of entry CCCCCCCc1ccc(NC(=O)N[C@@H](Cc2c[nH]c3ccccc23)C(=O)N[C@H](CC(N)=O)C(=O)N[C@@H](CC(=O)O)C(=O)N[C@@H]2C(=O)NCC(=O)N[C@@H](CCCN)C(=O)N[C@@H](CC(=O)O)C(=O)N[C@H](C)C(=O)N[C@@H](CC(=O)O)C(=O)NCC(=O)N[C@H](CO)C(=O)N[C@@H]([C@H](C)CC(=O)O)C(=O)N[C@@H](CC(=O)c3ccccc3N)C(=O)O[C@@H]2C)cc1
Ans: 0.125

Consider now this further compound.
Q: # query: Sa42 MIC of entry C[C@H](CC(=O)O)[C@@H]1NC(=O)[C@@H](CO)NC(=O)CNC(=O)[C@H](CC(=O)O)NC(=O)[C@@H](C)NC(=O)[C@H](CC(=O)O)NC(=O)[C@H](CCCN)NC(=O)CNC(=O)[C@@H](NC(=O)[C@H](CC(=O)O)NC(=O)[C@@H](CC(N)=O)NC(=O)[C@H](Cc2c[nH]c3ccccc23)NC(=O)CCCCC2CCCCC2)[C@@H](C)OC(=O)[C@H](CC(=O)c2ccccc2N)NC1=O
Ans: 1

# credit: patent US20150337013A1
